MEASUREMENT_DESCRIPTION: in vivo
Assay type: in vivo, CD-1 female mice
CONDITIONS: female, CD-1, mouse, in vivo, po, 25 mg/kg
Consider the following molecules; for each one, report its Tmax.
Answers are plain numbers, in min.

Cc1ccc(C(=O)N2CCOCC2)cc1Nc1nccn1-c1cc(NC2CC2)ncn1 [Compound 3] | 30
c1ccc(-c2nc3cc(Nc4nccn4-c4cc(NC5CCCC5)ncn4)ccc3[nH]2)cc1 [Compound 2] | 30

Per the record, Cc1ccc(NC(=O)c2ccccc2)cc1Nc1nccn1-c1cc(NC2CCCC2)ncn1 [Compound 1] has Tmax of 60

###

MEASUREMENT_DESCRIPTION: in vivo
Assay type: in vivo, CD-1 female mice
CONDITIONS: female, CD-1, mouse, in vivo, po, 25 mg/kg
ENDPOINT_LABEL: Cmax (ng/mL)
One number for each entry, in ng/mL.

Cc1ccc(NC(=O)c2ccccc2)cc1Nc1nccn1-c1cc(NC2CCCC2)ncn1 | 4000
c1ccc(-c2nc3cc(Nc4nccn4-c4cc(NC5CCCC5)ncn4)ccc3[nH]2)cc1 | 3800

Would you be so kind as to report Cmax for each listed record?
1. Cc1ccc(C(=O)N2CCOCC2)cc1Nc1nccn1-c1cc(NC2CC2)ncn1
2. NNC(=O)c1ccncc1 [Isoniazid, isoniazid, reference compound]

-- reply
1: 3000; 2: 28000

Sourced from paper PMC3220188
